targetUnderTest: T1, SNTB1, Q13884
T1 sequence (Q13884 107-205, limits assumed, looked up): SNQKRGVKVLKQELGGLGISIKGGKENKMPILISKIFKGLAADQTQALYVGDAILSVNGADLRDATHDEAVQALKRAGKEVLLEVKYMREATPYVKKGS
experimentalDetails: holdup assay
Set-up: key: below the threshold = too weak to quantify, mostly under pKd 3.1 to 4
measurementSetup: plain residues with an end cap or a label only (N-terminal biotin on a linker: ttds)
parameterMeasured: pKd
Form: value (number only, do not type unit).

Worked examples, 2 binders total:
FHPLGADSQV [SLC2A1, P11166] | 3.64
PRVKPQRSKV [PPP1R13L, Q8WUF5] | 3.65

Ask: What value of measured pKd is listed for DKDPHSETAL [TMIGD1, Q6UXZ0] ?
Result: 4.53
